Target: CK1ε (Homo sapiens (Human))
Sequence (P49674 whole entry): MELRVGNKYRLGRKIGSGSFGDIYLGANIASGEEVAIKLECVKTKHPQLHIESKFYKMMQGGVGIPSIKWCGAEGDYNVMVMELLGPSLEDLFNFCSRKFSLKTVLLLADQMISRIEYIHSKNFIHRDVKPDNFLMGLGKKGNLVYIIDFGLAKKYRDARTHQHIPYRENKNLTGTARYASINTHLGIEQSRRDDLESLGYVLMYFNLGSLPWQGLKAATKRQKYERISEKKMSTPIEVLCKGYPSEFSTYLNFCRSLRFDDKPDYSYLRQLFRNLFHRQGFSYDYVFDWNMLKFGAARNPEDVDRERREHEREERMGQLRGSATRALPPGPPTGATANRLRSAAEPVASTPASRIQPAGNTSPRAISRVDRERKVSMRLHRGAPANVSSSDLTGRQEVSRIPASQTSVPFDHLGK
pIC50: −log10 of the molar value.
Where pIC50 equals or exceeds 8, the correct label is Condition met; where it does not, the label is Condition not met.

For orientation, consider the following solved cases.
Compound: CC(=O)N1CCCC1C(=O)Nc1cn2nc(-c3c(-c4ccc(F)cc4)nc(C)n3C)ccc2n1 (centres unmarked) [Compound 353]
Category Label: Condition not met
--
Compound: O=C(Nc1cn2nc(-c3c(-c4ccc(F)cc4)ncn3CC(F)F)ccc2n1)c1ccnc(F)c1 [Compound 237]
Category Label: Condition met

Kindly consider the entry below.
I'd appreciate it if you could say whether O=C(Nc1cn2nc(-c3c(-c4ccc(F)cc4)nc4n3CCC4)ccc2n1)c1ccnc(N2CCOCC2)c1 [Compound 439] has pIC50 at least equal to 8.
Condition met

----------
Biological target: CK1δ (Homo sapiens (Human))
Sequence (P48730 whole entry): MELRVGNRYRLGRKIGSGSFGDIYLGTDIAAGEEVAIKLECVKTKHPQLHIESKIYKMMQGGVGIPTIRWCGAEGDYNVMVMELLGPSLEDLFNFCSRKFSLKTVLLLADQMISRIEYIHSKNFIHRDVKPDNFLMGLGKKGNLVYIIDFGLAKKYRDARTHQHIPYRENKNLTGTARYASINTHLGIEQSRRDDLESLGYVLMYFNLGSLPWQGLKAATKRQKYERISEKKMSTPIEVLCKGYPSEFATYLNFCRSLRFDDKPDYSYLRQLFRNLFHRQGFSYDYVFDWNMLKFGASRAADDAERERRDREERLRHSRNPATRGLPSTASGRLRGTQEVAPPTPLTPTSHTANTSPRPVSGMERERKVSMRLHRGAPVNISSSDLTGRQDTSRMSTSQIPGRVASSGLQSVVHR
Assay: CK1δ kinase assay (Caliper LABCHIP electrophoretic separation of fluoresceinated peptide substrate and product)
Type: biochemical
Conditions: 200 pM enzyme, 50 μM ATP, 22 hours at room temperature
Description: CK1ε and CK1δ Kinase Assays The kinase assay was performed in V-bottom 384-well plates. […] The reaction was incubated at room temperature for 22 hours and terminated by adding 45 μl of 35 mM EDTA to each sample. The reaction mixture was analyzed on the Caliper LABCHIP®3000 (Caliper, Hopkinton, Mass.) by electrophoretic separation of the unphosphorylated substrate and phosphorylated product. […] Compounds were dissolved at 10 mM in dimethylsulfoxide (DMSO) and evaluated at eleven concentrations. […]
Property: pIC50; scope: individual compounds
pIC50 is defined as minus the log10 of a concentration measured in mol/L.

Fetch value of pIC50 on CK1δ (Homo sapiens (Human)) for CC(C)(C)c1cc(C(=O)Nc2cn3nc(-c4c(-c5ccc(F)cc5)nc5ccccn45)ccc3n2)ccn1 .
8.52

Fetch value of pIC50 on CK1δ (Homo sapiens (Human)) for O=C(Nc1cn2nc(-c3c(-c4ccc(F)cc4)ncn3C3CC(F)(F)C3)ccc2n1)c1ccnc(F)c1 .
9.48

Fetch value of pIC50 on CK1δ (Homo sapiens (Human)) for O=C(Nc1cn2nc(-c3c(-c4ccc(F)cc4)ncn3C3CCCCC3)ccc2n1)c1ccnc(F)c1 .
9.49

Fetch value of pIC50 on CK1δ (Homo sapiens (Human)) for COc1cccc2[nH]c(C(=O)Nc3cn4nc(-c5c(-c6ccc(F)cc6)nc(C)n5C)ccc4n3)cc12 .
9.42

Fetch value of pIC50 on CK1δ (Homo sapiens (Human)) for N#CCC(=O)Nc1cn2nc(-c3c(-c4ccc(F)cc4)ncn3CCN3CCOCC3)ccc2n1 .
8.36

Fetch value of pIC50 on CK1δ (Homo sapiens (Human)) for O=C(Nc1cn2nc(-c3c(-c4ccc(F)cc4)nc(C4CC4)n3C3CCN(Cc4ccon4)CC3)ccc2n1)c1cccc(-c2cccnc2)c1 .
8.81

Fetch value of pIC50 on CK1δ (Homo sapiens (Human)) for O=C(Nc1cn2nc(-c3c(-c4ccc(F)cc4)nc4ccccn34)ccc2n1)c1cncnc1 .
9.28

Fetch value of pIC50 on CK1δ (Homo sapiens (Human)) for O=C(Nc1cn2nc(-c3c(-c4ccc(F)cc4)nc4ccccn34)ccc2n1)C1CCOCC1 .
9.13

Fetch value of pIC50 on CK1δ (Homo sapiens (Human)) for O=C(Nc1cn2nc(-c3c(-c4ccc(F)cc4)ncn3C3CCNCC3)ccc2n1)c1ccnc(N2CCOCC2)c1 .
9.14

Fetch value of pIC50 on CK1δ (Homo sapiens (Human)) for O=C(Nc1cn2nc(-c3c(-c4ccc(F)cc4)ncn3C3CCN(C(=O)CCC(F)(F)F)CC3)ccc2n1)c1ccnc(F)c1 .
9.24

Fetch value of pIC50 on CK1δ (Homo sapiens (Human)) for O=C(Nc1cn2nc(-c3c(-c4ccc(F)cc4)nc4n3CCNC4)ccc2n1)c1ccncc1 .
9.05

Fetch value of pIC50 on CK1δ (Homo sapiens (Human)) for Cc1nc(-c2ccc(F)cc2)c(-c2ccc3nc(NC(=O)c4c[nH]c5ncccc45)cn3n2)n1C .
9.04

Fetch value of pIC50 on CK1δ (Homo sapiens (Human)) for O=C(Nc1cn2nc(-c3c(-c4ccc(F)cc4)nc4n3CCN(C(=O)C3CC3(F)F)C4)ccc2n1)c1ccnc(F)c1 (centres unmarked) .
9.70

Fetch value of pIC50 on CK1δ (Homo sapiens (Human)) for Cc1nc(-c2ccc(F)cc2)c(-c2ccc3nc(NC(=O)c4ccnc(F)c4)cn3n2)n1CC(F)(F)F .
9.21

Fetch value of pIC50 on CK1δ (Homo sapiens (Human)) for O=C(Nc1cn2nc(-c3c(-c4ccc(F)cc4)ncn3C3CCN(C(=O)OC4CCOCC4)CC3)ccc2n1)c1ccnc(F)c1 .
9.51

Fetch value of pIC50 on CK1δ (Homo sapiens (Human)) for Cc1nc(-c2ccc(F)cc2)c(-c2ccc3nc(NC(=O)c4ccnc(F)c4)cn3n2)n1C1CCN(CCC#N)CC1 .
9.60
